System: CAKI-1 renal
protocol details: NCI tumour cell line growth inhibition, 48 h; in the data active means GI50 below about 0.43 µM; inactive means the rest
Thanks in advance; please answer with one of these: Y for active, N for inactive

Example entries and their recorded answers appear below.
1) O=C(c1ccccc1)c1nn(-c2ccccc2)c2nc3nc(-c4ccccc4)cc(=O)n3nc12
N
2) COc1ccc(Oc2cc(NCCC(F)(F)F)c3ncc(-c4ccc(C(=O)NC5CC5)c(C)c4)n3n2)c(F)c1F
Y

For O=C(Nc1cccc(-n2cc(-c3ccncc3)c(-c3ccc(O)c(Cl)c3)n2)c1)c1ccc(Cl)c(Cl)c1 , what call appears in the results of this test?
N

How about this compound: Oc1c(CNCCNCc2cc(Cl)cc(Cc3ccccc3)c2O)cc(Cl)cc1Cc1ccccc1
Y

How about this compound: Cc1cn2c(/C=N/N=C(N)N)c(-c3ccsc3)nc2s1
N

How about this compound: COc1ccc(-c2nc(-c3nc4ccc(C(F)(F)F)cc4[nH]3)c3ccccn23)cc1
N

How about this compound: CN(C)c1ccc(C(=C2C=CC(=[N+](C)C)C=C2)c2ccccc2Cl)cc1
N

How about this compound: CCN(CC)c1ccc(/C=C/C=C(/C#N)C(N)=S)cc1
N

How about this compound: FC(F)(F)c1[nH]ncc1-c1nc2ccc3[nH]ncc3c2c2c1CCCC2
N

###

Test system: HT29 colon
protocol details: NCI tumour cell line growth inhibition, 48 h
Where a SMILES comes first, the peptide text is derived from it. The star is where a group is joined. Cbz = O=C(OCc1ccccc1)*
attribute measured: TGI

Worked examples, 10 compounds total:
1) CCOC(=O)CNC(=O)C(C)NC(=O)C(NC(=O)OCc1ccccc1)C(C)C (stereo not drawn) (Cbz-Val-Ala-Gly-OEt; configuration not given here)
> 100 µM
2) CC(=O)OC(=C(C#N)C#N)c1nccnc1C(C)=O
8.94 µM
3) CC(C)(SCc1ccccc1)C(N)C(=O)O (stereo unspecified)
> 100 µM
4) COC(=O)C1C(O)C(C)C(O)OC1C(C)C(O)C(C)/C=C\C=C(/C)C(=O)Nc1c(C)c(OC(C)=O)c2c(c1O)C(=O)C(C)=C1OCOC(/C(C)=C/C(C)=O)=C12 (stereo unspecified)
26.5 µM
5) Cc1cc(C)c(C(=O)/C=C/c2ccccc2)c(C)c1
> 100 µM
6) CN(C)Cc1cc(C(=O)/C=C/c2ccc(F)cc2)cc(CN(C)C)c1O
> 100 µM
7) COc1ccc2nccc(/C=C/c3ccnc4ccc(OC)cc34)c2c1
> 100 µM
8) CC(=O)C1=C(C)N(c2ccccc2)C2(O)C=CC(=O)C3=C(O)c4ccccc4C(=O)C312 (stereo unspecified)
> 100 µM
9) O=[N+]([O-])c1ccc(COc2cccc3cccnc23)cc1
> 100 µM
10) COc1ccc(/C=C2\CN(C)CC3C2=NN(c2ccccc2)C3c2ccc(OC)cc2)cc1 (stereo unspecified)
> 100 µM

Which measured TGI belongs to Cc1cc2c(C(C)C)c(O)c(O)c(C=Nc3ccccc3)c2c(O)c1-c1c(C)cc2c(C(C)C)c(O)c(O)c(C=Nc3ccccc3)c2c1O , tested on HT29 colon?
> 100 µM

How about this compound: Cc1ccc(C)c(COCCOCn2c(=O)[nH]c(=O)c3cc(Br)ccc32)c1
> 100 µM

How about this compound: O=C1CCCC[C@H]1C(O)CC1CC(=O)N(c2ccccc2)C(=O)C1 (stereo partly specified)
> 100 µM

How about this compound: Cc1ccc(S(=O)(=O)N2CCCSCCN(S(=O)(=O)c3ccc(C)cc3)CCCSCC2)cc1
> 100 µM

How about this compound: COc1cc2ccc(CC(N)=O)cc2cc1OC
> 100 µM
